Recorded OKT4-A488 signal with supernatant values for a group of binders are listed next.
biological target: T1, human CD4 on cells (SKW3 cells; human PBMCs) (human, UniProt P01730 26-458); test: FACS binning on SKW3 cells; competitor OKT4-A488; background 2163, max binding 8200
T1 construct: whole, on cells; SKW3 CD4 knockout cells served as the negative cell line in the primary screen; also called hCD4; huCD4
# answer = number (no unit)

INSERT INTO measurements (binder, test_result) VALUES
  ('75110_07J02A (antibody, V domains shown, Tested as non-clonal AlivaMab Mouse Kappa hybridoma supernatant (detected with anti-mouse Fc gamma and anti-human kappa)) VH: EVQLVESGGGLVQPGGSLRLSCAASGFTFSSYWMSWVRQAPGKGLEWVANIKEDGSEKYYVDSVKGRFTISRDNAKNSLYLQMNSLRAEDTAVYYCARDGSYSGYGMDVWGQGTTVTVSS VL: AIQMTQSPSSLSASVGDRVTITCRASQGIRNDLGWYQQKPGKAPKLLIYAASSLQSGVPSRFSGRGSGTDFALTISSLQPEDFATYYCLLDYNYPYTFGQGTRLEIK', 8050);

Documented OKT4-A488 signal with supernatant of 75110_14P08A (antibody, V domains shown, Tested as non-clonal AlivaMab Mouse Kappa hybridoma supernatant (detected with anti-mouse Fc gamma and anti-human kappa)) VH: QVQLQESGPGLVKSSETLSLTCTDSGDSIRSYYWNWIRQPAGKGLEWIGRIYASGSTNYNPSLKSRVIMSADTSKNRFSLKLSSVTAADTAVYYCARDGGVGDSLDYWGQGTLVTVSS VL: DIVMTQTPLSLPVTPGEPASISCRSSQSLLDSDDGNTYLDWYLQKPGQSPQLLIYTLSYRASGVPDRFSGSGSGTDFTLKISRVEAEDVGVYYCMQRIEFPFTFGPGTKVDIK : 9100

Documented OKT4-A488 signal with supernatant of 75110_06G04A (antibody, V domains shown, Tested as non-clonal AlivaMab Mouse Kappa hybridoma supernatant (detected with anti-mouse Fc gamma and anti-human kappa)) VH: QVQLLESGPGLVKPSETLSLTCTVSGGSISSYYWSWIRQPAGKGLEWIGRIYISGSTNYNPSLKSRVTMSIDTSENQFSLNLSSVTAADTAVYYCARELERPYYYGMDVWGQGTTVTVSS VL: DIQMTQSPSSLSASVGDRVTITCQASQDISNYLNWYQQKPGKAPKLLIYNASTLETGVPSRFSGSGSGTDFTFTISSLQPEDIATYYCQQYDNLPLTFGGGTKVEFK : 9310

Source of measurements: patent US20220112288A1
